Provenance of the data: patent US20090023773A1

molecular target: recombinant homomeric hASIC1a channels (Homo sapiens); construct: expressed in transfected cells; host or cells: Xenopus laevis oocytes (nuclear microinjection of expression vector such as pcDNA3); assay: Two-electrode voltage clamp in Xenopus laevis oocytes expressing gated ion channels (Example 4); assay type: cell-based; settings: Table 2; generated using oocytes as in Example 4
Sequence (P78348 whole entry): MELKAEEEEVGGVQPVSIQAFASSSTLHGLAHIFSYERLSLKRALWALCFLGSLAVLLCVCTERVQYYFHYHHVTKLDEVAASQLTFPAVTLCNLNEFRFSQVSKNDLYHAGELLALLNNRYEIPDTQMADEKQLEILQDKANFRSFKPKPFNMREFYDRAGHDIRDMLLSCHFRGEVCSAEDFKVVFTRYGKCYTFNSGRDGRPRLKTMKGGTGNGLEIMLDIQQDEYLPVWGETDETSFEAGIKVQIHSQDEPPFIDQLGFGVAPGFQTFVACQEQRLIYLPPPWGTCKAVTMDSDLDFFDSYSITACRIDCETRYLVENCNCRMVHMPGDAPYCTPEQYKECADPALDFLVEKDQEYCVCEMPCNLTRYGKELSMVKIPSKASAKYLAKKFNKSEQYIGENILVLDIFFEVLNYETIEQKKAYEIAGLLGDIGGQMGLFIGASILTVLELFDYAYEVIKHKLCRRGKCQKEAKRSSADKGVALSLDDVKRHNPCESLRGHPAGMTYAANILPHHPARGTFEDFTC
pIC50: −log10 of the molar value.
The entries below are paired with their reported pIC50.

Example entries begin here.
>>> testresult("COC(=O)c1ccc(NC(=O)c2ccccc2CN2CCC(Oc3cc(C)nc4c(F)cccc34)CC2)cc1 [Compound 51]")
"4.70 to 5.00"
>>> testresult("COc1ccc(CN2CCC(Oc3cc(C)nc4c(F)cccc34)CC2)cn1 [Compound 72]")
"< 4.52"
>>> testresult("Cc1cc(OC2CCN(Cc3c(F)cccc3C#N)CC2)c2cccc(F)c2n1 [Compound 42]")
"5.00 to 7.00"
>>> testresult("COc1ccc(F)c2c(OC3CCN(Cc4ccccc4C#N)CC3)cc(C)nc12 [Compound 35]")
"< 4.52"
>>> testresult("Cc1cc(OC2CCN(Cc3ccncc3F)CC2)c2cccc(F)c2n1 [Compound 73]")
"4.52 to 4.70"

Look up pIC50: Cc1cc(OC2CCN(Cc3ccccc3C#N)CC2)c2cc(F)ccc2n1 [Compound 30] 4.70 to 5.00

What value of pIC50 has been reported for the following molecule? COc1cc(F)cc2c(OC3CCN(Cc4ccccc4C(=O)O)CC3)cc(C)nc12 [Compound 36] 5.00 to 7.00
